Quick reference: normalized growth of the listed items.
# Experiment Description: chemical genetic growth profiling, strain panel (AID 1159580);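 note: tested at 20 µM; growth read once vehicle control cultures reached saturation at 30 °C; 1 = growth at the plate median or of vehicle wells; lower values mean less growth of the strain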
# Experimental Context: S. cerevisiae deletion strains, growth OD, locus YJL168C, strain set2, hits give low values
Out of some 5,500 compounds screened, about 2,000 (36%) were called active. Inconclusive results (about 18%) are left out. Some of the results follow.
Form: value (number only, do not type unit).

CC(CCC(=O)O)[C@H]1CCC2C3CC[C@@H]4CCCC[C@]4(C)C3CC[C@@]21C (some centres not stated) ... 0.983

Can you look up the measured normalized growth of Cc1cc(C)cc(OCC2CNC(=O)O2)c1 (configuration not stated) for me? 1.02

Can you look up the measured normalized growth of COc1ccc(C(=O)CC(=O)c2ccc(C(C)(C)C)cc2)cc1 for me? 1

* * *

# Experiment Description: chemical genetic growth profiling, strain panel (AID 1159580);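 note: tested at 20 µM; growth read once vehicle control cultures reached saturation at 30 °C; 1 = growth at the plate median or of vehicle wells; lower values mean less growth of the strain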
# Experimental Context: S. cerevisiae deletion strains, growth OD, locus YKL085W, strain MDH1
In all, about 5,500 compounds went through this assay and about 2,000 (36%) were called active. Roughly 18% stayed inconclusive and do not appear here. Cut-off read from the data, not from the text of the source: active = normalized growth mostly below about 0.91 (no sharp cut-off); inconclusive = no clear call, values can overlap the other calls; inactive = mostly above about 0.92. The list shows a part of the results.
Outcome (select one): label 1 for active, label 0 for inactive

CC[C@H](CCC(C)[C@H]1CCC2C3CCC4C[C@@H](O)CC[C@]4(C)C3CC[C@@]21C)C(C)C (some centres not stated) ... label 0
CNC(=O)Oc1ccc2c(c1)[C@]1(C)CCN(C)[C@@H]1N2C ... label 0

Please state the recorded outcome for this compound: CC(CCC(=O)O)[C@H]1CCC2C3C(C[C@H](O)[C@@]21C)[C@@]1(C)CC[C@@H](O)C[C@H]1C[C@H]3O (some centres not stated) label 0

Please state the recorded outcome for this compound: NC(N)=O label 0

Please state the recorded outcome for this compound: CC(CCC(=O)O)[C@H]1CCC2C3CC[C@@H]4CCCC[C@]4(C)C3CC[C@@]21C (some centres not stated) label 0

Please state the recorded outcome for this compound: CC(CCC(=O)O)[C@H]1CCC2C3C[C@H](O)[C@@H]4C[C@H](O)CC[C@]4(C)C3CC[C@@]21C (some centres not stated) label 0

Please state the recorded outcome for this compound: CN(C)CCC(c1ccc(Br)cc1)c1ccccn1 (configuration not stated) label 0

Please state the recorded outcome for this compound: CC12CC3CC(C)(C1)CC(N)(C3)C2 label 0

* * *

Quick reference: normalized growth of the listed items.
# Experiment Description: chemical genetic growth profiling, strain panel (AID 1159580);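 note: tested at 20 µM; growth read once vehicle control cultures reached saturation at 30 °C; 1 = growth at the plate median or of vehicle wells; lower values mean less growth of the strain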
# Experimental Context: S. cerevisiae deletion strains, growth OD, locus YOR144C, strain elg1, hits give low values
Screen size: about 5,500 compounds; about 2,000 (36%) were called active. Roughly 18% stayed inconclusive and do not appear here. The list shows a part of the results.
Form: value (number only, do not type unit).

Below are worked cases with known answers.
CC(CCC(=O)O)[C@H]1CCC2C3C[C@H](O)[C@@H]4C[C@H](O)CC[C@]4(C)C3CC[C@@]21C (some centres undefined) ... 1.02
C[C@H](CCC(=O)O)[C@H]1CCC2C3C(CC[C@@]21C)[C@@]1(C)CC[C@@H](O)C[C@H]1C[C@@H]3O (some centres undefined) ... 0.984
C[C@H](N)[C@H](O)c1ccccc1 ... 0.995

Next compound, normalized growth to be filled in.
Can you look up the measured normalized growth of COc1cc([C@H]2Oc3cc([C@H]4Oc5cc(O)cc(O)c5C(=O)[C@@H]4O)ccc3O[C@@H]2CO)ccc1O for me? 0.96
